System: 521955-158-R6-J3-PDC complex spheroid growth, % test/control;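 note: spheroids exposed to compounds for 7 days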
assay procedure: Anticancer human tumor 521955-158-R6-J3-PDC patient-derived pancreatic carcinoma cell line growth inhibition [Asc]; active = viability on the fitted dose curve at most 10% of control; inactive = the rest
condition notes: second compound 3.16 µM; first compound 1 µM
Outcomes: T = active, F = inactive

compound="C#Cc1c(F)ccc2cc(O)cc(-c3ncc4c(N5CC6CCC(C5)N6)nc(OCC56CCCN5CC(F)C6)nc4c3F)c12 (centres undefined) + Cc1c(S(C)(=O)=O)c(-c2cc(F)cc(N3CCN(c4ccc(NS(=O)(=O)c5ccc(NC(CCN6CCC(C(=O)OCCCP(=O)(O)O)CC6)CSc6ccccc6)c(S(=O)(=O)C(F)(F)F)c5)cc4)CC3)c2)c(-c2ccc(Cl)cc2)n1C(C)C" class_label=T
compound="C=C(F)C(=O)N1CCN(c2nc(OCC3CCCN3C)nc3c2CCN(c2cccc4cccc(Cl)c24)C3)CC1CC#N (centres undefined) + Cc1c(S(C)(=O)=O)c(-c2cc(F)cc(N3CCN(c4ccc(NS(=O)(=O)c5ccc(NC(CCN6CCC(C(=O)OCCCP(=O)(O)O)CC6)CSc6ccccc6)c(S(=O)(=O)C(F)(F)F)c5)cc4)CC3)c2)c(-c2ccc(Cl)cc2)n1C(C)C" class_label=T
compound="CNC(C)C(=O)NC1CN(S(=O)(=O)c2cccc(S(=O)(=O)N3CCC4CCC(C(=O)NC(c5ccccc5)c5ccccc5)N4C(=O)C(NC(=O)C(C)NC)C3)c2)CCC2CCC(C(=O)NC(c3ccccc3)c3ccccc3)N2C1=O (centres undefined) + Cc1c(S(C)(=O)=O)c(-c2cc(F)cc(N3CCN(c4ccc(NS(=O)(=O)c5ccc(NC(CCN6CCC(C(=O)OCCCP(=O)(O)O)CC6)CSc6ccccc6)c(S(=O)(=O)C(F)(F)F)c5)cc4)CC3)c2)c(-c2ccc(Cl)cc2)n1C(C)C" class_label=F
compound="C=CC(=O)N1CCN(c2nc(=O)n(-c3c(C)ccnc3C(C)C)c3nc(-c4c(O)cccc4F)c(F)cc23)C(C)C1 (centres undefined) + Cc1c(S(C)(=O)=O)c(-c2cc(F)cc(N3CCN(c4ccc(NS(=O)(=O)c5ccc(NC(CCN6CCC(C(=O)OCCCP(=O)(O)O)CC6)CSc6ccccc6)c(S(=O)(=O)C(F)(F)F)c5)cc4)CC3)c2)c(-c2ccc(Cl)cc2)n1C(C)C" class_label=F
